Parameter pKd: see the listing below.
assay-system: T1, recombinant monomeric cynomolgus monkey TIGIT-His (cynomolgus monkey)
T1 construct: also called Cyno TIGIT His; cTIGIT; not shown: His tag
T1 sequence (chain, as listed by the source limits assumed): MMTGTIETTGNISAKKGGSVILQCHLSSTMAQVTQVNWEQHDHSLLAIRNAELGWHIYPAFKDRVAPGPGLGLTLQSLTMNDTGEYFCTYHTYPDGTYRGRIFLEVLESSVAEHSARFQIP
assay-procedure: BLI (ForteBio), IgG on AHQ sensor, 100 nM monomeric antigen, 1:1 model
Keep it numeric: pKd is minus log10 of the concentration in mol/L.

Look over these answered cases.
MAB15-IgG4 (antibody, V domains shown) VH: QVQLVQSGAEVKKPGASVKVSCKASGYTFREYYMHWVRQAPGQGLEWMGIINPSIGLTSYARKFQGRVTMTRDTSTSTVYMELSSLRSEDTAVYYCARGGRTTWIGAFDIWGQGTMVTVSS VL: EIVMTQSPATLSVSPGERATLSCRASQSVSSNLAWYQQKPGQAPRLLIYGASTRATGIPARFSGSGSGTEFTLTISSLQSEDFAVYYCQQYVVWPPLTFGGGTKVEIKR = 7.10
MAB18-IgG4 (antibody, V domains shown) VH: QVQLVQSGAEVKKPGASVKVSCKASGYTFPAYYMHWVRQAPGQGLEWMGIINPSLGLTSYARKFQGRVTMTRDTSTSTVYMELSSLRSEDTAVYYCARGGRTTWIGAFDIWGQGTMVTVSS VL: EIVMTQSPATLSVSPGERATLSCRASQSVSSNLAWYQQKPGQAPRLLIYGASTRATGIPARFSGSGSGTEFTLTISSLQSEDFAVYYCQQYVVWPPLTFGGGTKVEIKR = 7.14

Indicate the recorded pKd value for this binder: MAB2-IgG4 (antibody, V domains shown) VH: QLQLQESGPGLVKPSETLSLTCTVSGGSISSSKYYWGWIRQPPGKGLEWIGSIYYSGSTFYNPSLKSRVTISVDTSKNQFSLKLSSVTAADTAVYYCARDANYYGSAWAFDPWGQGTLVTVSS VL: EIVLTQSPATLSLSPGERATLSCRASQSVSSYLAWYQQKPGQAPRLLIYDASNRATGIPARFSGSGSGTDFTLTISSLEPEDFAVYYCQQHFNLPTFGGGTKVEIKR
8.80
